Molecular target: soluble H-2K^b (soluble extracellular domains); heavy chain residues 1-274 with C-terminal His-tag and … (mouse)
Experiment: inhibition assay with soluble H-2K^b, 37° C.
Kd reference
Numeric only. Scale: µM

query: Indicate its recorded Kd; the binder in question is SIINFEKL [OVA8 (SIINFEKL), Chicken ovalbumin257-264]
result: 0.082

// data source = patent US20090317414A1
